Exercise: state measured kon for each of the compounds provided.
Test target: natural TetR (Escherichia coli, UniProt P04483)
Construct: made in house
Sequence (P04483 whole entry): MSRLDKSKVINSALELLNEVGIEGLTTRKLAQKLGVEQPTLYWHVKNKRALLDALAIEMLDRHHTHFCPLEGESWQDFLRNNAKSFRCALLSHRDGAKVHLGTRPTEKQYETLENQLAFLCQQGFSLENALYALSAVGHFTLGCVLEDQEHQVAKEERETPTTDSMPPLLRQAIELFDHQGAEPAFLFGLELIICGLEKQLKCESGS
Assay details: Surface plasmon resonance affinity, natural TetR
Type: binding
Assay setup: read-out: Ka (association constant), TetR+Mg2+, SPR
Could you give me the number in M⁻¹ s⁻¹? Just the number is fine.

input: // fetch kon for C=C1c2cccc(O)c2C(=O)C2=C(O)[C@]3(O)C(=O)C(C(N)=O)=C(O)[C@@H](N(C)C)[C@@H]3[C@@H](O)[C@H]12 [MTC, Methacycline] ; system: natural TetR (Escherichia coli, UniProt P04483)
output: 1330

input: // fetch kon for CN(C)[C@@H]1C(O)=C(C(N)=O)C(=O)[C@@]2(O)C(O)=C3C(=O)c4c(O)cccc4[C@@](C)(O)[C@H]3C[C@@H]12 [TC, tetracycline] ; system: natural TetR (Escherichia coli, UniProt P04483)
output: 278

input: // fetch kon for CN(C)[C@@H]1C(O)=C(C(N)=O)C(=O)[C@@]2(O)C(O)=C3C(=O)c4c(O)ccc(Cl)c4[C@@](C)(O)[C@H]3C[C@@H]12 [CTC, chlortetracycline] ; system: natural TetR (Escherichia coli, UniProt P04483)
output: 4430
